# targetEntity: mTORC1 (Homo sapiens, UniProt P42345+P62942)
# Construct: endogenous in cells; host or cells: PC3 cells (human prostate adenocarcinoma)
# methodNotes: Inhibition assay for mTORC1: phosphorylation of pS6K at Thr389, AlphaLISA in PC3 cells
# Format: cell-based
# conditionLabel: read-out: pIC50 mTORC1 (converted)
Each entry below carries its reported IC50.
property: IC50

compound="CO[C@@H]1C[C@H](C[C@@H](C)[C@@H]2CC(=O)[C@H](C)/C=C(\\C)[C@@H](O)[C@@H](OC)C(=O)[C@H](C)C[C@H](C)/C=C/C=C/C=C(\\C)C(OCC3CCOCC3)C[C@@H]3CC[C@@H](C)[C@@](O)(O3)C(=O)C(=O)N3CCCCC3C(=O)O2)CC[C@H]1O (stereo partly shown) [Compound 226]" property=IC50 reportedmeasurement="0.316 to 3.16 nM"
compound="COCCOC1C[C@@H]2CC[C@@H](C)[C@@](O)(O2)C(=O)C(=O)N2CCCCC2C(=O)O[C@H]([C@H](C)C[C@@H]2CC[C@@H](O)[C@H](OC)C2)CC(=O)[C@H](C)/C=C(\\C)[C@@H](O)[C@@H](OC)C(=O)[C@H](C)C[C@H](C)/C=C/C=C/C=C/1C (stereo partly shown) [Compound 220]" property=IC50 reportedmeasurement="< 0.316 nM"
compound="COC1C[C@@H]2CC[C@@H](C)[C@@](O)(O2)C(=O)C(=O)N2CCCCC2C(=O)O[C@H]([C@H](C)C[C@@H]2CC[C@@H](OC(=O)NCCc3ccncc3)[C@H](OC)C2)CC(=O)[C@H](C)/C=C(\\C)[C@@H](O)[C@@H](OC)C(=O)[C@H](C)C[C@H](C)/C=C/C=C/C=C/1C (stereo partly shown) [Compound 334]" property=IC50 reportedmeasurement="< 0.316 nM"
compound="CO[C@@H]1C[C@H](C[C@@H](C)[C@@H]2CC(=O)[C@H](C)/C=C(\\C)[C@@H](O)[C@@H](OC)C(=O)[C@H](C)C[C@H](C)/C=C/C=C/C=C(\\C)C(OC3COC3)C[C@@H]3CC[C@@H](C)[C@@](O)(O3)C(=O)C(=O)N3CCCCC3C(=O)O2)CC[C@H]1O (stereo partly shown) [Compound 218]" property=IC50 reportedmeasurement="0.316 to 3.16 nM"

All values here come from patent US11702429B2.
